Collected CC50 at 48 h values appear next to each entry.
assay summary: Cytotoxicity against human HepG2 cells incubated for 48 hrs by PI staining based flow cytometric analysis
Type: toxicity, cell-based

{"compound": "COc1cc2c(N3CCCCC3)nc(N(C)C)nc2cc1OC1CCCC1", "value prefix": "=", "CC50 at 48 h, µM": 66.1}
{"compound": "CCCCCCCCCCCCCCCCOP(=O)([O-])OCC[N+](C)(C)C", "value prefix": "=", "CC50 at 48 h, µM": 51.6}
{"compound": "COc1cc2c(N3CCCCC3)nc(NCc3ccc(Br)cc3)nc2cc1OC1CCCC1", "value prefix": "=", "CC50 at 48 h, µM": 28.1}
{"compound": "COc1cc2c(N3CCCCC3)nc(NC(=O)c3ccc(F)cc3)nc2cc1OC1CCCC1", "value prefix": ">", "CC50 at 48 h, µM": 80}
{"compound": "COc1cc2c(N3CCCCC3)nc(NCc3ccc(F)cc3)nc2cc1OC1CCNC1 (stereo not given)", "value prefix": "=", "CC50 at 48 h, µM": 10.1}

----------
Collected half-life values appear next to each entry.
assay summary: Metabolic stability in human liver microsomes assessed as half-life preincubated for 10 mins and measured after 60 mins by LC-MS/MS analysis
Assay type: ADME, Microsome
quantity name: half-life (min)

{"compound structure string": "COc1cc2c(N3CCCCC3)nc(NCc3ccc(C(C)(C)C)cc3)nc2cc1OC1CCCC1", "quantity name": "half-life", "recorded value": 117}
{"compound structure string": "Clc1ccc(CNc2nc(N3CCCCC3)c3cc4c(cc3n2)OCO4)cc1", "quantity name": "half-life", "recorded value": 16}
{"compound structure string": "COc1cc2c(N3CCCCC3)nc(NCc3ccc(Cl)cc3)nc2cc1OC1CCCC1", "quantity name": "half-life", "recorded value": 19.1}
{"compound structure string": "COc1ccc(CNc2nc(N3CCCCC3)c3cc(OC)c(OCc4ccccc4)cc3n2)cc1", "quantity name": "half-life", "recorded value": 32.2}
{"compound structure string": "COc1cc2c(N3CCCCC3)nc(N(C)C)nc2cc1OC1CCCC1", "quantity name": "half-life", "recorded value": 39}
{"compound structure string": "COc1cc2c(N3CCCCC3)nc(NCc3ccc(C(F)(F)F)cc3)nc2cc1OC1CCCC1", "quantity name": "half-life", "recorded value": 38.9}
{"compound structure string": "COc1cc2c(N3CCOCC3)nc(NCc3ccc(F)cc3)nc2cc1OC1CCCC1", "quantity name": "half-life", "recorded value": 6}
{"compound structure string": "COc1cc2c(N3CCCCC3)nc(NCc3ccc(Br)cc3)nc2cc1OC1CCCC1", "quantity name": "half-life", "recorded value": 83.4}
{"compound structure string": "COc1cc2c(N3CCCCC3)nc(NCc3ccc(F)cc3)nc2cc1OC1CCCC1", "quantity name": "half-life", "recorded value": 12.4}
{"compound structure string": "COc1cc2c(N3CCCCC3)nc(NC(=O)c3ccc(F)cc3)nc2cc1OC1CCCC1", "quantity name": "half-life", "recorded value": 23.8}

----------
assay summary: Metabolic stability in human liver microsomes assessed as hepatic blood flow preincubated for 10 mins and measured after 60 mins by LC-MS/MS analysis
Assay type: ADME, Microsome
experimental setup: read-out: QH
quantity name: hepatic extraction ratio at 1 h

{"compound": "COc1cc2c(N3CCCCC3)nc(NCc3ccccc3)nc2cc1OC1CCCC1", "recorded value": 0.607}
{"compound": "COc1cc2c(N(C)C)nc(NCc3ccc(F)cc3)nc2cc1OC1CCCC1", "recorded value": 0.799}
{"compound": "COc1cc2c(N3CCCCC3)nc(NCc3ccc(F)cc3)nc2cc1OC1CCNC1 (stereo not given)", "recorded value": 0.21}
{"compound": "COc1cc2c(N3CCCCC3)nc(NC(=O)c3ccc(F)cc3)nc2cc1OC1CCCC1", "recorded value": 0.575}
{"compound": "CNc1nc(NCc2ccc(F)cc2)nc2cc(OC3CCCC3)c(OC)cc12", "recorded value": 0.738}
{"compound": "COc1cc2c(N3CCCCC3)nc(NCc3ccc(Cl)cc3)nc2cc1OC1CCCC1", "recorded value": 0.627}
{"compound": "Clc1ccc(CNc2nc(N3CCCCC3)c3cc4c(cc3n2)OCO4)cc1", "recorded value": 0.668}
{"compound": "COc1cc2c(N3CCCCC3)nc(NCc3ccc(Br)cc3)nc2cc1OC1CCCC1", "recorded value": 0.281}
{"compound": "COc1cc2c(N3CCCCC3)nc(N(C)C)nc2cc1OC1CCCC1", "recorded value": 0.452}
{"compound": "COc1cc2c(N3CCCCC3)nc(NCc3ccc(C(C)(C)C)cc3)nc2cc1OC1CCCC1", "recorded value": 0.216}
